Biological target: MAP3K13 (Homo sapiens)
Sequence (O43283 whole entry): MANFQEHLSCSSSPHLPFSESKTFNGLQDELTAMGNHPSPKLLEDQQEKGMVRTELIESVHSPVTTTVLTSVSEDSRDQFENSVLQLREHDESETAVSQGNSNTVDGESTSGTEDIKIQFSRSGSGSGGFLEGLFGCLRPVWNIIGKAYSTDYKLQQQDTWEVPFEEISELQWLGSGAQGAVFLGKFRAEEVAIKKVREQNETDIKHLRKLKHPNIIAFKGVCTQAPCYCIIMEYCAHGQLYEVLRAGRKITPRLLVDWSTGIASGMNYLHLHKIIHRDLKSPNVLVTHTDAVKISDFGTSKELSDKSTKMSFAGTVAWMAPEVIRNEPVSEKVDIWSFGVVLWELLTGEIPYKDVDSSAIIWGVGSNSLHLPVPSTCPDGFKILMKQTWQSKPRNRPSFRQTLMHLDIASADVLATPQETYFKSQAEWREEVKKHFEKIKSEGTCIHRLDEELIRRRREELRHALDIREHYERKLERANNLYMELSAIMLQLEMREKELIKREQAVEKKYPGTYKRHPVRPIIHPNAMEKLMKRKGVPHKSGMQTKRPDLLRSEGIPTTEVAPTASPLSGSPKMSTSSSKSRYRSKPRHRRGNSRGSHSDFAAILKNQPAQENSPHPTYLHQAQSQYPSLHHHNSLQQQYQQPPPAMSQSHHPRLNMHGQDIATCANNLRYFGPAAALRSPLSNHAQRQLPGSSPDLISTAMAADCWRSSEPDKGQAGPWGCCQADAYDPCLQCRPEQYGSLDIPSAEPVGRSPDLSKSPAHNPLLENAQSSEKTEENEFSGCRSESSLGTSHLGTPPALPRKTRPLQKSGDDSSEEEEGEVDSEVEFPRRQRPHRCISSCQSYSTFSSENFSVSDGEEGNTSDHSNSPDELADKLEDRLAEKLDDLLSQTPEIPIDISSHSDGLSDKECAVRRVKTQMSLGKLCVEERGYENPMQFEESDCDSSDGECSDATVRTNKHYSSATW
READOUT_LABEL: IC50

The measured IC50 that COc1nc(N[C@H]2CC[C@H](NS(=O)(=O)CC(C)C)CC2)nc2[nH]nc(N3CCOC[C@H]3C)c12 showed for MAP3K13 (Homo sapiens) is ≥ 20 µM

----------
Target: ABL2 (Homo sapiens, UniProt P42684)
Sequence (P42684 whole entry): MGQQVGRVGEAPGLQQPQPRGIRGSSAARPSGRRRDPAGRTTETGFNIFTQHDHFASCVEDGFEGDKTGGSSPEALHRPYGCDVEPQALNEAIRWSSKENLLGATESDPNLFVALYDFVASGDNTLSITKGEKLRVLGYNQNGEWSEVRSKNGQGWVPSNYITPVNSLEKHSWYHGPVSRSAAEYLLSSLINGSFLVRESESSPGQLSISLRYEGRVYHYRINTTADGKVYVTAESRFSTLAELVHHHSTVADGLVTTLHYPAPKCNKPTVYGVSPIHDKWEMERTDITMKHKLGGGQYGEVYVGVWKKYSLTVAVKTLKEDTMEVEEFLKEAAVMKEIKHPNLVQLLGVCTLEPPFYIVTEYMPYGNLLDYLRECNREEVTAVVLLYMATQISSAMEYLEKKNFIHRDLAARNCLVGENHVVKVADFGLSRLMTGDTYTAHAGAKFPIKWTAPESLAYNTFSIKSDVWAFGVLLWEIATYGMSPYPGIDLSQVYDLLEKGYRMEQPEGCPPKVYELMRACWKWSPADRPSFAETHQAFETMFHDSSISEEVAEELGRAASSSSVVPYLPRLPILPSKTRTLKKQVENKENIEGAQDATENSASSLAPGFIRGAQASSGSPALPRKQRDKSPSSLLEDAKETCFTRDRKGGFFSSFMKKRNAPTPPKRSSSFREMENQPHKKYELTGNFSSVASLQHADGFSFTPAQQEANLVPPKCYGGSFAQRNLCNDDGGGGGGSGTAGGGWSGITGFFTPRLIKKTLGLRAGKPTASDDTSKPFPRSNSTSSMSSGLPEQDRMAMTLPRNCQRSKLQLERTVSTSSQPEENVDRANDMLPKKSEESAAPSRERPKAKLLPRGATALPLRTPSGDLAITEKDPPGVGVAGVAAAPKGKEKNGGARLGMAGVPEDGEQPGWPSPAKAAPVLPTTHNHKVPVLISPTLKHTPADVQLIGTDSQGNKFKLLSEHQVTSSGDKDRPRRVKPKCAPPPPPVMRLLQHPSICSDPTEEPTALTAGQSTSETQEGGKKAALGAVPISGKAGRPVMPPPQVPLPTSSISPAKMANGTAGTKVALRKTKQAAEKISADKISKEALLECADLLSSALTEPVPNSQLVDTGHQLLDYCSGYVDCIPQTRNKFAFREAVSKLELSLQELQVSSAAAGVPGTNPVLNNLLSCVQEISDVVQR
Experiment: biochemical
Design: species or system HEK293/K-562/placenta mixed human extract; Kinobeads chemoproteomic competition binding, quantified by TMT LC-MS/MS, dose response up to 20 uM
READOUT_LABEL: IC50

According to the records, this compound COc1ccccc1-c1n[nH]c2nc(N[C@H]3CC[C@H](NS(=O)(=O)CCC(F)(F)F)CC3)nc(OC)c12 displays IC50 of ≥ 20 µM

----------
Target: PRKAA1 (Homo sapiens)
Sequence (Q13131 whole entry): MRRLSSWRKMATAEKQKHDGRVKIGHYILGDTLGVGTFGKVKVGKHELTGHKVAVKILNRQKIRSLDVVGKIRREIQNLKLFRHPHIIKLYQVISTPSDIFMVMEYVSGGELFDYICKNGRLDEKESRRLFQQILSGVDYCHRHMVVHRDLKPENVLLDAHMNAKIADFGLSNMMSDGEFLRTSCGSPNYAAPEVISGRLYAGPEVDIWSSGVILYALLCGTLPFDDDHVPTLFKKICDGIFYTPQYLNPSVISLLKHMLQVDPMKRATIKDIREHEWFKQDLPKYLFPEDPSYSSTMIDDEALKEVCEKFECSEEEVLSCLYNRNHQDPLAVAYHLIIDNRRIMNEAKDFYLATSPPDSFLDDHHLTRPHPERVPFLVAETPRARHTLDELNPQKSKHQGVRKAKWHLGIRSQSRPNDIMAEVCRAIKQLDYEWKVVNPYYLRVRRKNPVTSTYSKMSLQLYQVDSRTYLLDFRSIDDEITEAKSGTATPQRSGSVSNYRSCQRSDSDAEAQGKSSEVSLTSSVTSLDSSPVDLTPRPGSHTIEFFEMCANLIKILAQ
Assay: biochemical
Parameters: species or system HEK293/K-562/placenta mixed human extract; Kinobeads chemoproteomic competition binding, quantified by TMT LC-MS/MS, dose response up to 20 uM
READOUT_LABEL: IC50

According to the records, this molecule COc1nc(N[C@H]2CC[C@H](NS(=O)(=O)CC(C)C)CC2)nc2[nH]nc(N3CCOC[C@H]3C)c12 displays IC50 of ≥ 20 µM

----------
Target: UniProt:Q6ZN16
Sequence (Q6ZN16 whole entry): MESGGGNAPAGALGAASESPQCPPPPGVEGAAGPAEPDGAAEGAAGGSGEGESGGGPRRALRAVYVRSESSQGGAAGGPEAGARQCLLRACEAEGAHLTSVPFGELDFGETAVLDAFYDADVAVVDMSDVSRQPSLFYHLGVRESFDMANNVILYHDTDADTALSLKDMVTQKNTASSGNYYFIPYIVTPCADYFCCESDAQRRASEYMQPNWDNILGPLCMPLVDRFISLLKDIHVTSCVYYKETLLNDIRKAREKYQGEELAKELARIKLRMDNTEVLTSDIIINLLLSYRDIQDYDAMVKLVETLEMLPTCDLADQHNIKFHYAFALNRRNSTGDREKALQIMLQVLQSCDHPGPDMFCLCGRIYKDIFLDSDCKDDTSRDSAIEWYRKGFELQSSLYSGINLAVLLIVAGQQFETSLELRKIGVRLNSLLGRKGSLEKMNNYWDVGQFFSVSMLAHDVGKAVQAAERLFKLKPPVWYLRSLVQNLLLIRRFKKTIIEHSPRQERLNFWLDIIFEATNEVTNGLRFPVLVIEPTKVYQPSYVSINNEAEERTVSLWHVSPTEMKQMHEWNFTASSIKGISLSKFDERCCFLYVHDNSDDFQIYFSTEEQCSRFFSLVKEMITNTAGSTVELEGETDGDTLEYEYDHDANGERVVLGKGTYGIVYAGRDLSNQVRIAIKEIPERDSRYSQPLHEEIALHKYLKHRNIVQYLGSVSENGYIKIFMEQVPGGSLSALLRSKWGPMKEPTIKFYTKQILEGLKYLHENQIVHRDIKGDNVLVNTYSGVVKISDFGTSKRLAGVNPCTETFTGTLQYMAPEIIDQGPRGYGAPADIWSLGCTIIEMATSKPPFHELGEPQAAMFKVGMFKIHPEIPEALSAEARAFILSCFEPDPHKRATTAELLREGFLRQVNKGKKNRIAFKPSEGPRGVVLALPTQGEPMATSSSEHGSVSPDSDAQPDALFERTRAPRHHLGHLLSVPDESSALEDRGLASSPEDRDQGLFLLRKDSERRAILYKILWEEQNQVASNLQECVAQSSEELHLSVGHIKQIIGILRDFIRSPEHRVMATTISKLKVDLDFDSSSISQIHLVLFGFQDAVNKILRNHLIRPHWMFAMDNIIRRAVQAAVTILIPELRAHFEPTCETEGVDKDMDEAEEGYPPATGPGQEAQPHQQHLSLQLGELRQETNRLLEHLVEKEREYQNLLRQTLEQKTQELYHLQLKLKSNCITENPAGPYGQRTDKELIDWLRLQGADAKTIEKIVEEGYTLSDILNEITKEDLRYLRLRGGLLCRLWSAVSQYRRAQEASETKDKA
Test: biochemical
Set-up: species or system HEK293/K-562/placenta mixed human extract; Kinobeads chemoproteomic competition binding, quantified by TMT LC-MS/MS, dose response up to 20 uM
READOUT_LABEL: IC50

According to the records, this compound COc1ccccc1-c1n[nH]c2nc(N[C@H]3CC[C@H](NS(=O)(=O)CCC(F)(F)F)CC3)nc(OC)c12 displays IC50 of ≥ 20 µM

----------
Biological target: PKN1 (Homo sapiens, UniProt Q16512)
Sequence (Q16512 whole entry): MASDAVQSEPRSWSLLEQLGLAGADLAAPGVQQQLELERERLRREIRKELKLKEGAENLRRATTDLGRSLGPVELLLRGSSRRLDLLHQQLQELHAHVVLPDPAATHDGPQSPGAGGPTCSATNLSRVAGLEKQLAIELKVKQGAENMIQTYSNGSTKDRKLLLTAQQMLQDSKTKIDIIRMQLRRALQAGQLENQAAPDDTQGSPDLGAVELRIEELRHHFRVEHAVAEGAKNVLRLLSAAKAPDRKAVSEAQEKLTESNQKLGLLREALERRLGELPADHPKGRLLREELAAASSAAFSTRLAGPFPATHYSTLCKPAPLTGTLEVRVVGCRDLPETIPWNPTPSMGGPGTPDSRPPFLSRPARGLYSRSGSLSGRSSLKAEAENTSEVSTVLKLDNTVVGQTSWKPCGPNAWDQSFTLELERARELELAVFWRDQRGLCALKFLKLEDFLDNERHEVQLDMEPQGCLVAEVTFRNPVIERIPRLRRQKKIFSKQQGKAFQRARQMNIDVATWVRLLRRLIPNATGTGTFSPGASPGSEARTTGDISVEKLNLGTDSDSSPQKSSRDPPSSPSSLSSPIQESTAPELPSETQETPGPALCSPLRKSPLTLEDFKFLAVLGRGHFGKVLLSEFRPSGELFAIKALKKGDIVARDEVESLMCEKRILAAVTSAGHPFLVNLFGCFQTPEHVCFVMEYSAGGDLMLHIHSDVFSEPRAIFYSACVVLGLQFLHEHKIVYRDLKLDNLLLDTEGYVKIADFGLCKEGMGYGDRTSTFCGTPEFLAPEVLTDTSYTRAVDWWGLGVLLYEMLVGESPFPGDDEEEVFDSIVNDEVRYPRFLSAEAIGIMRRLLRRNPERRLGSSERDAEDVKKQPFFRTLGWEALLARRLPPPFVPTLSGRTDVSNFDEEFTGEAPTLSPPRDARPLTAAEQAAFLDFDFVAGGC
Assay: biochemical
Parameters: species or system HEK293/K-562/placenta mixed human extract; Kinobeads chemoproteomic competition binding, quantified by TMT LC-MS/MS, dose response up to 20 uM
READOUT_LABEL: IC50

According to the records, this compound COc1nc(N[C@H]2CC[C@H](NS(=O)(=O)CC(C)C)CC2)nc2[nH]nc(N3CCOC[C@H]3C)c12 displays IC50 of ≥ 20 µM

----------
Biological target: IRAK4 (Homo sapiens, UniProt Q9NWZ3)
Sequence (Q9NWZ3 1-460): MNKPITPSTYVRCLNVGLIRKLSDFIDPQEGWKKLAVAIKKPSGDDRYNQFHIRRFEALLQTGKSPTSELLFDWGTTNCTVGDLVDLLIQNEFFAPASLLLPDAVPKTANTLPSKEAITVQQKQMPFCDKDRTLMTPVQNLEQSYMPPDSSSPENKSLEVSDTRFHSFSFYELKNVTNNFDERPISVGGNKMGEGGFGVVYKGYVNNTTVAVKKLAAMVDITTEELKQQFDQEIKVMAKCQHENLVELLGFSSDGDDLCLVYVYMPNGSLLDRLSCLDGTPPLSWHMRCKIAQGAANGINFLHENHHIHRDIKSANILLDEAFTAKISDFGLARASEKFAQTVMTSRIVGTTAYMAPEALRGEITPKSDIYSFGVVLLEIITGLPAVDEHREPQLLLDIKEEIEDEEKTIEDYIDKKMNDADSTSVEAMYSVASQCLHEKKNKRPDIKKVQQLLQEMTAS
Assay: biochemical
Set-up: species or system HEK293/K-562/placenta mixed human extract; Kinobeads chemoproteomic competition binding, quantified by TMT LC-MS/MS, dose response up to 20 uM
READOUT_LABEL: IC50

According to the records, this compound COc1nc(N[C@H]2CC[C@H](NS(=O)(=O)CC(C)C)CC2)nc2[nH]nc(N3CCOC[C@H]3C)c12 [compound 39] displays IC50 of ≥ 20 µM
